Target: HsPim-1 (Homo sapiens)
Construct: made in house; host or cells: Escherichia coli BL21 DE3 pLysS
Sequence (P11309 whole entry): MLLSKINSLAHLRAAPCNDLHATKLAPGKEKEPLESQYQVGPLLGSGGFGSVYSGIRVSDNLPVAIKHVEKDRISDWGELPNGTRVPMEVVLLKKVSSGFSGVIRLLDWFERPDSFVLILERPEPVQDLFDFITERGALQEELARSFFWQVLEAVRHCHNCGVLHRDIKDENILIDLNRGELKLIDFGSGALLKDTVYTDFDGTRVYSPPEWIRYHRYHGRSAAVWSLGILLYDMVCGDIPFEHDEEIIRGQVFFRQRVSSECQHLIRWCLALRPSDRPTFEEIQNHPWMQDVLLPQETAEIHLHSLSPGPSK
Assay: Kinase assay, luminescent ADP-Glo, 10 µM ATP
Format: biochemical
Details: Table 2; ADP-Glo, 10 µM ATP, mean of n ≥ 3; read-out: IC50 Pim-1
Experimental: The synthesized compounds were tested using a luminescence-based assay against a panel of nine kinases: Pim-1, Pim-2, CDK5/p25, CDK9/CyclinT, Haspin, CK1ε, and GSK3β (from human); DYRK1A (from Rattus norvegicus); and CLK1 (from Mus musculus). Kinase enzymatic activities were assayed with 10 µM ATP in 384-well plates using the luminescent ADP-Glo^TM assay (Promega, Madison, WI, USA) according to the recommendations of the manufacturer (see [56] for details on this method). […]
pIC50: −log10 of the molar value.
Recorded pIC50 determines the group label, using low = under 6, middle = from 6 up to 7, high = 7 and over

- Smiles Notation: "NC(=O)c1c(O)cc(O)c2c1oc1ccccc12"
  Class Label: "middle"

Problem: Into which category would you place "NC(=O)c1c(O)cc(O)c2c1oc1ccc(C(F)(F)F)cc12" ?
Result: low

Problem: Into which category would you place "NC(=O)c1c(O)cc(O)c2c1oc1c([N+](=O)[O-])cccc12" ?
Result: middle

Problem: Into which category would you place "NC(=O)c1c(O)cc(O)c2c1oc1cc(O)ccc12" ?
Result: high

Problem: Into which category would you place "CC(=O)c1ccc2oc3c(C(N)=O)c(O)cc(O)c3c2c1" ?
Result: middle

* * *

Observed IC50, system HsPim-2 (Homo sapiens, UniProt Q9P1W9).
Just the number please, in µM, no unit attached.

As a guide, the following entries are already answered.
- Compound: "NC(=O)c1c(O)cc(O)c2c1oc1c(N)cccc12"
  Target Of Assay: "HsPim-2 (Homo sapiens, UniProt Q9P1W9)"
  Reading Unit: "µM"
  IC50: 0.085
- Compound: "CC(=O)c1cc2c(cc1O)oc1c(C(N)=O)c(O)cc(O)c12"
  Target Of Assay: "HsPim-2 (Homo sapiens, UniProt Q9P1W9)"
  Reading Unit: "µM"
  IC50: 0.14
- Compound: "CC(=O)C1=C(O)C=C2Oc3c(C(N)=O)c(O)cc(O)c3[C@]2(C)C1=O [Cerco, Cercosporamide]"
  Target Of Assay: "HsPim-2 (Homo sapiens, UniProt Q9P1W9)"
  Reading Unit: "µM"
  IC50: 1.43
- Compound: "CC(=O)c1ccc2oc3c(C(N)=O)c(O)cc(O)c3c2c1"
  Target Of Assay: "HsPim-2 (Homo sapiens, UniProt Q9P1W9)"
  Reading Unit: "µM"
  IC50: 0.12

Problem: Given the entry "NC(=O)c1c(O)cc(O)c2c1oc1cc(O)ccc12" , what IC50 was observed with HsPim-2 (Homo sapiens, UniProt Q9P1W9)?
Result: 0.035

* * *

Molecular target: HsCDK9/CyclinT (Homo sapiens)
Construct: made in house; host or cells: Sf9 insect cells (baculovirus, pFastBac)
Sequence (P50750 whole entry): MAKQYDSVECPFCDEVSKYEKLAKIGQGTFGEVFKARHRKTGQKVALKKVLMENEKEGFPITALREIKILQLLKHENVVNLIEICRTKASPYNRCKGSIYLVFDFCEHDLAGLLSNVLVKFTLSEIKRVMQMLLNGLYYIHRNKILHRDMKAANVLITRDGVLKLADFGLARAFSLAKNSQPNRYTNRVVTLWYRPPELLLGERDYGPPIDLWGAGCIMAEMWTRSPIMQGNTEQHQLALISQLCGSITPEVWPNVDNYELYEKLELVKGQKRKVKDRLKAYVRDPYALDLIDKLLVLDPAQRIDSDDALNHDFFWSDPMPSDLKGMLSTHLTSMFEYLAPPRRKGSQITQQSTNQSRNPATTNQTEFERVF
Sequence (O60563 whole entry partner): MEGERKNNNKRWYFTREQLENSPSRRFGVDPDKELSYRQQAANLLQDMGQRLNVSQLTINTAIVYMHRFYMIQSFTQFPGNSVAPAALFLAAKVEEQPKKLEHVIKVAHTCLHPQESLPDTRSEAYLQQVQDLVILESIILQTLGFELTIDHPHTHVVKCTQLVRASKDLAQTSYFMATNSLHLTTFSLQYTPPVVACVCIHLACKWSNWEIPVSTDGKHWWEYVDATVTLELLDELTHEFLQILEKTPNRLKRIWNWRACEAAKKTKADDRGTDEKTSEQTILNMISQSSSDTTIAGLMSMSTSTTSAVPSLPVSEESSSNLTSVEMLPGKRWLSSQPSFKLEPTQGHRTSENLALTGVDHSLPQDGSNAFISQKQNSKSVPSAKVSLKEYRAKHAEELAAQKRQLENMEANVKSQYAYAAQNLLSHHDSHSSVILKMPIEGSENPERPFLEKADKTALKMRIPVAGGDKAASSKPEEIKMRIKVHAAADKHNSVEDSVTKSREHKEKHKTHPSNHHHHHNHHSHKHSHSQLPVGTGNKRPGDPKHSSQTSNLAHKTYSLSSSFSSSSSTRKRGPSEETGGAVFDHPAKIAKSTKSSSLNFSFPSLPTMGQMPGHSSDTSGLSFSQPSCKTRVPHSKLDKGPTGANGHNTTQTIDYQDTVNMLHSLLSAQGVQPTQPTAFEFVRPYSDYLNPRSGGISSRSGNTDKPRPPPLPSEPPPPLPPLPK
Experiment: Kinase assay, luminescent ADP-Glo, 10 µM ATP
Format: biochemical
Settings: duplicate, read-out: Kinase Enzymatic IC50 CDK9/CyclinT
Assay Endpoint: pIC50
Lab note: report pIC50 as minus log10 of the concentration in molar units, number only.

- Compound: "NC(=O)c1c(O)cc(O)c2c1oc1ccc(F)cc12 [Compound 46]"
  Target Of Assay: "HsCDK9/CyclinT (Homo sapiens)"
  Number: 6.04

Now consider the entry below.
Problem: Given the entry CC(=O)C1=C(O)C=C2Oc3c(C(N)=O)c(O)cc(O)c3[C@]2(C)C1=O [Cerco, Cercosporamide] , report its measured pIC50.
Result: 6.66
